- measured.target: Ba/F3 EGFR-Del19/T790M/C797S (Homo sapiens, UniProt P00533, T790M/C797S, cells depend on it, form not given)
- Sequence (P00533 with tags, fused parts or gaps DEL746-750/T790M/C797S, form open): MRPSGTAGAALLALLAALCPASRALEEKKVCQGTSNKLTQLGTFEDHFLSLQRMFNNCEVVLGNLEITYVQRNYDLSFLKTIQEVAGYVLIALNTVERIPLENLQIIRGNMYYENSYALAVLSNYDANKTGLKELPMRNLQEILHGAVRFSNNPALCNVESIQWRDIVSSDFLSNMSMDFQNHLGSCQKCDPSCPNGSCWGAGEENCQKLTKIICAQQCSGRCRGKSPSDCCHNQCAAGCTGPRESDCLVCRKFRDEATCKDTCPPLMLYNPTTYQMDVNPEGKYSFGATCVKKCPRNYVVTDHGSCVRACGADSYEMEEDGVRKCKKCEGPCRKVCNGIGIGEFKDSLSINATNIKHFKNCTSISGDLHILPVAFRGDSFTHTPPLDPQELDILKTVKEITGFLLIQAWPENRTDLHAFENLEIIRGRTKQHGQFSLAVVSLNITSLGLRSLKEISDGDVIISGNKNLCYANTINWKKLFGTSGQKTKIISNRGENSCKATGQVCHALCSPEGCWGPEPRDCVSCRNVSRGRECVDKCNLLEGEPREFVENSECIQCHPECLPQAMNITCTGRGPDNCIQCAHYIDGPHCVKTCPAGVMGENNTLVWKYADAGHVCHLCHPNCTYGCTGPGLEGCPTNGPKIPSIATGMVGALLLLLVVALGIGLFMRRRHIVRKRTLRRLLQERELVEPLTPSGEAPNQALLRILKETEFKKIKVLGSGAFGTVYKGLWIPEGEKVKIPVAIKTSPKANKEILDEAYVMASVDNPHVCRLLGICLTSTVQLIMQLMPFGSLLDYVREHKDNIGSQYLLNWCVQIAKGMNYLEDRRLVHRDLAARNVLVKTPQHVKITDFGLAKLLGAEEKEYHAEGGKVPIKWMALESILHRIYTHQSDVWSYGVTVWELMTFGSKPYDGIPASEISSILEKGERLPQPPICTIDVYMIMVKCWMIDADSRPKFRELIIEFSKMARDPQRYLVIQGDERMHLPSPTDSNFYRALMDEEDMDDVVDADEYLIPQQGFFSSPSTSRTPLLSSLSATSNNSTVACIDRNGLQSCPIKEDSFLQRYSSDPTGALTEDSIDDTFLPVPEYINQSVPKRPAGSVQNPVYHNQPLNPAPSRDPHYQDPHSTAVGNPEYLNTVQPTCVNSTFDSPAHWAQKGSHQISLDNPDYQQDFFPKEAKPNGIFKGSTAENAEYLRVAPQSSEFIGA
- assay.remarks: Ba/F3 viability assay (CellTiter-Glo), EGFR-Del19/T790M/C797S (DTC)
- Assay type: cell-based
- experimental.context: Ba/F3 EGFR-Del19/T790M/C797S anti-proliferation; read-out: BAF3 DTC IC50
metric: GI50

Prompt line: Quick one: GI50 of C[C@H]1CCOc2c(cnn2C)-c2nccc(n2)Nc2cc(c(-c3cc4ccccc4n3C)cn2)O1 ?
Response line: 100 to 1000 nM

Prompt line: # iterate: C[C@H]1CCOc2c(cnn2C)-c2nccc(n2)Nc2cc(c(-c3cn(CCN4CCCC4)nc3OCC(F)(F)F)cn2)O1
Response line: < 50 nM

Prompt line: # iterate: CCOc1nn(C2CC2)cc1-c1cnc2cc1O[C@@H](C)CCOc1c(cnn1C)-c1nccc(n1)N2
Response line: < 50 nM

Prompt line: # iterate: CCOc1nn(C2CCN(C3COC3)CC2)cc1-c1cnc2cc1O[C@@H](C)CCOc1c(cnn1C)-c1nccc(n1)N2
Response line: < 50 nM

----------
- measured.target: Ba/F3 EGFR-Del19/C797S (Homo sapiens, UniProt P00533, C797S, cells depend on it, form not given)
- Sequence (P00533 with tags, fused parts or gaps DEL746-750/C797S, form open): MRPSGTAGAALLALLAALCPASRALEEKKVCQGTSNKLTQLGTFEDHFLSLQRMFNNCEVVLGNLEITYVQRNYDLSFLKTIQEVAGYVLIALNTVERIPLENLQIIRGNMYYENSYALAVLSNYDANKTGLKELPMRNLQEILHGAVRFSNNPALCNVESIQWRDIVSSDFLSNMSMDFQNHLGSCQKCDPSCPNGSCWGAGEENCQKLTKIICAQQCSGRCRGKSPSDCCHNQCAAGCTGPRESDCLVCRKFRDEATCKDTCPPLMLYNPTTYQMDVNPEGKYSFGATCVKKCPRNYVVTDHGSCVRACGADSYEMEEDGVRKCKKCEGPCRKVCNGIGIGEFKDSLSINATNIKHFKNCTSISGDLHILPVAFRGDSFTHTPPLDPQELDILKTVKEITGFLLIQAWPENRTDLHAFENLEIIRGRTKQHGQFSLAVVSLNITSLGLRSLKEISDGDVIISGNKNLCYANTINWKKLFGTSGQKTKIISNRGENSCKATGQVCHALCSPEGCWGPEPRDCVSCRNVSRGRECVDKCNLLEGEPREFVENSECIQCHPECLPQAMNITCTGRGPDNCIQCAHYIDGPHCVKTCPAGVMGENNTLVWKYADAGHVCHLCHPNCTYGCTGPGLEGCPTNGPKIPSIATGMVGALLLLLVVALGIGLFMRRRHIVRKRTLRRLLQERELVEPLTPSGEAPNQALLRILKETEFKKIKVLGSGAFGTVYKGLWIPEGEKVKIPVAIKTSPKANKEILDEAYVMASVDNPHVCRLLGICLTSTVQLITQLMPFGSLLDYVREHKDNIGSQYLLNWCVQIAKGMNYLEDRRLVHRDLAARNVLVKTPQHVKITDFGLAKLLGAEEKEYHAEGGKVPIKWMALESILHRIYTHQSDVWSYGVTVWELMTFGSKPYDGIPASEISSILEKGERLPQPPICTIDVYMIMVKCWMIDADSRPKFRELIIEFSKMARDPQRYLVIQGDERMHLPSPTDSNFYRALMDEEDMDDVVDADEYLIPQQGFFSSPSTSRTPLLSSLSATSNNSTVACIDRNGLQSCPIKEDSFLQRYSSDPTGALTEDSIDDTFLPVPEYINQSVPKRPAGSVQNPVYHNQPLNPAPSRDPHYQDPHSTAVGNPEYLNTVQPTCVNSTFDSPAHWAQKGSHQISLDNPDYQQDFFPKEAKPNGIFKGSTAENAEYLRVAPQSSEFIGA
- assay.remarks: Ba/F3 viability assay (CellTiter-Glo), EGFR-Del19/C797S (DC)
- Assay type: cell-based
- experimental.context: Ba/F3 EGFR-Del19/C797S anti-proliferation; read-out: BAF3 DC IC50
metric: GI50

Prompt line: Quick one: GI50 of C[C@H]1CCOc2c(cnn2C)-c2nccc(n2)Nc2cc(c(-c3cn(C4CN(C5COC5)C4)nc3OCCF)cn2)O1 ?
Response line: < 50 nM

Prompt line: # iterate: COC(=O)c1cc(-c2cnc3cc2O[C@@H](C)CCOc2c(cnn2C)-c2nccc(n2)N3)n(C)c1
Response line: 100 to 1000 nM

Prompt line: # iterate: C[C@H]1CCOc2c(cnn2C)-c2nccc(n2)Nc2cc(ccn2)O1
Response line: 100 to 1000 nM

Prompt line: # iterate: CCOc1nn(CC(F)F)cc1-c1cnc2cc1O[C@@H](C)CCOc1c(cnn1C)-c1nccc(n1)N2
Response line: < 50 nM

----------
- measured.target: Ba/F3 EGFR-Del19/T790M (Homo sapiens, UniProt P00533, T790M, cells depend on it, form not given)
- Sequence (P00533 with tags, fused parts or gaps DEL746-750/T790M, form open): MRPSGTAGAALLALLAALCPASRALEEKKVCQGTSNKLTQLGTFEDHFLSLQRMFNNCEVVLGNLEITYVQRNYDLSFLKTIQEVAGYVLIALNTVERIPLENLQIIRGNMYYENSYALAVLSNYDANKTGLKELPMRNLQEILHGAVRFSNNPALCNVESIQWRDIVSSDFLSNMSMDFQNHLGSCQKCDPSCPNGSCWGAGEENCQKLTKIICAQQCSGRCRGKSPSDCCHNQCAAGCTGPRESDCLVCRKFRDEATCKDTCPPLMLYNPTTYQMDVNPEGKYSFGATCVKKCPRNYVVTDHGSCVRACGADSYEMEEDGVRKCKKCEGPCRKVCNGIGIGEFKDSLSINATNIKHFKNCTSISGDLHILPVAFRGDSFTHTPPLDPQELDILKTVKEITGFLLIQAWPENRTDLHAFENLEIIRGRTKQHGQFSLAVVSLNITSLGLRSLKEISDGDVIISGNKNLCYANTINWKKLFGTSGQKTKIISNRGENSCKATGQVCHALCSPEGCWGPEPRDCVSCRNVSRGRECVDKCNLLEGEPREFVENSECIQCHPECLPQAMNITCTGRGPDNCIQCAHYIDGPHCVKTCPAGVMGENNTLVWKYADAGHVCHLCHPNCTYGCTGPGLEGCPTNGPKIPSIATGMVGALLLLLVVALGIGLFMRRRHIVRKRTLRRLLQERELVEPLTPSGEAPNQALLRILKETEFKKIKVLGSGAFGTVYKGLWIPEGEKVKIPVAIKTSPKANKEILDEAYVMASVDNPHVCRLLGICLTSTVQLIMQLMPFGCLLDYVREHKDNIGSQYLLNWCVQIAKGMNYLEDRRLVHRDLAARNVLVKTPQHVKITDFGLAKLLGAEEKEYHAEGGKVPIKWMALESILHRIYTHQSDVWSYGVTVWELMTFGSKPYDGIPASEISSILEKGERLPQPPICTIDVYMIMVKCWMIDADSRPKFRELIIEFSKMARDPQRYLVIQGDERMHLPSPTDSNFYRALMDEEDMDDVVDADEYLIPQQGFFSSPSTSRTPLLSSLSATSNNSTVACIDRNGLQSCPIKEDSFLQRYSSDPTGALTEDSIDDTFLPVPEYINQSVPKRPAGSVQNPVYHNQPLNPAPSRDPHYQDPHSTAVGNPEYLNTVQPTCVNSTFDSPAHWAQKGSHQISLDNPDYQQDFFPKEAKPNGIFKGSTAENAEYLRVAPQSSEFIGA
- assay.remarks: Ba/F3 viability assay (CellTiter-Glo), EGFR-Del19/T790M (DT)
- Assay type: cell-based
- experimental.context: Ba/F3 EGFR-Del19/T790M anti-proliferation; read-out: BAF3 DT IC50
metric: GI50

Prompt line: Quick one: GI50 of Cc1nn(C2CCN(CCF)CC2)cc1-c1cnc2cc1O[C@@H](C)CCOc1c(cnn1C)-c1nccc(n1)N2 ?
Response line: < 50 nM

Prompt line: # iterate: C[C@H]1CCOc2c(cnn2C)-c2nccc(n2)Nc2cc(c(-c3ccc(CN4CCN(C)CC4)cc3)cn2)O1
Response line: < 50 nM

Prompt line: # iterate: C[C@H]1CCOc2c(cnn2C)-c2nccc(n2)Nc2cc(c(-c3ccc(CN4CCOCC4)cc3)cn2)O1
Response line: < 50 nM

Prompt line: # iterate: C[C@H]1CCOc2c(cnn2C)-c2nccc(n2)Nc2cc(c(Cl)cn2)O1
Response line: 100 to 1000 nM

Prompt line: # iterate: C[C@H]1CCOc2c(cnn2C)-c2nccc(n2)Nc2cc(c(-c3cn(C4CN(C5COC5)C4)nc3OCCF)cn2)O1
Response line: < 50 nM
